assay: blockers of cytochrome c efflux from mitochondria – biochemical, purified mitochondria (AID 1603); conditions: stronger effect = lower value;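 note: mouse liver mitochondria challenged with calcium chloride; signal normalized to the plate average as 100%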
propertyName: cytochrome c release ratio
Lab note: jot the number down without any unit.

## Task Return cytochrome c release ratio (reported value) for this molecule: CCCCCCCCNC(C)C(O)c1ccc(SC(C)C)cc1 (stereo not drawn)
## Result 0.61

## Task Return cytochrome c release ratio (reported value) for this molecule: COc1cnc(NS(=O)(=O)c2ccc(N)cc2)nc1
## Result 0.79

## Task Return cytochrome c release ratio (reported value) for this molecule: CCN(CC)CCOCCOC(=O)C1(c2ccccc2)CCCC1
## Result 0.8

---

test: galactose survival enhancers in mitochondrial complex I cybrids – cell-based, galactose medium, ATP luminescence, primary screen (AID 1645843); details: complex I mutant cybrid cells, 72 h;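 note: positive z means more ATP and so rescue of galactose-driven cybrid death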
Active and inactive are the calls of the source.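 Rule for the calls: active = z-score of at least 1.8 in each of two replicates, scored against plate mean and spread of sample wells; inactive = the rest.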
Your answer must be one of the following: Yes for active, No for inactive

## Task GET /call?item= C[C@]12CCC(=O)C=C1C=C[C@@H]1[C@@H]2CC[C@@]2(C)[C@H]1CC[C@@]21CCC(=O)O1 returns the recorded outcome of this test.
## Result No

## Task GET /call?item= CCCCNc1ccc(C(=O)OCCN(C)C)cc1 returns the recorded outcome of this test.
## Result No

## Task GET /call?item= CC(=O)Oc1ccccc1C(=O)Nc1ncc([N+](=O)[O-])s1 returns the recorded outcome of this test.
## Result No

## Task GET /call?item= CN(C)[C@@H]1C(=O)C(C(N)=O)=C(O)[C@@]2(O)C(=O)C3=C(O)c4c(O)ccc(Cl)c4[C@@H](O)[C@H]3C[C@@H]12 returns the recorded outcome of this test.
## Result Yes

## Task GET /call?item= COC(=O)C1=C(C)NC(C)=C(C(=O)OC(C)C)C1c1cccc2nonc12 (centres undefined) returns the recorded outcome of this test.
## Result No

## Task GET /call?item= COc1cc(OC)c(C(=O)CCCN2CCCC2)c(OC)c1 returns the recorded outcome of this test.
## Result No

## Task GET /call?item= NCCCC[C@H](N[C@@H](CCc1ccccc1)C(=O)O)C(=O)N1CCC[C@H]1C(=O)O returns the recorded outcome of this test.
## Result No

## Task GET /call?item= COc1cc2c3cc1Oc1cc(ccc1O)C[C@@H]1c4c(cc(OC)c(O)c4Oc4ccc(cc4)C[C@@H]3N(C)CC2)CC[N+]1(C)C returns the recorded outcome of this test.
## Result No

## Task GET /call?item= COc1cc(C)c(Cc2cnc(N)nc2N)cc1OC returns the recorded outcome of this test.
## Result No

---

molecular target: Mitogen-activated protein kinase 7 (Homo sapiens); experiment: Gal4-ERK5 driven luciferase induction – cell-based, HTS, primary screen (AID 1508626); settings: HeLa Gal4-ERK5 transactivation, 18 h, at 5 µM, stronger effect = higher value;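 note: luciferase driven by Gal4-ERK5 fusion binding five Gal4 sites before minimal TATA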
The source made the active and inactive calls.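 Rule for the calls: active = luciferase signal above three times the same-plate solvent-only control wells; inactive = the rest.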
propertyName: luciferase signal

## Task Return luciferase signal (reported value) for this compound: CC1=C(C(=O)O)N2C(=O)[C@@H](NC(=O)[C@H](N)C3=CCC=CC3)[C@H]2SC1
## Result 48 AU (inactive)

## Task Return luciferase signal (reported value) for this compound: OCCOCCN1CCN(C2=Nc3ccccc3Sc3ccccc32)CC1
## Result 48 AU (inactive)

## Task Return luciferase signal (reported value) for this compound: CCCCOC(=O)c1ccc(N)cc1
## Result 56 AU (inactive)

## Task Return luciferase signal (reported value) for this compound: O=c1oc2cc(O)ccc2s1
## Result 56 AU (inactive)

## Task Return luciferase signal (reported value) for this compound: CN1CCN2c3ccccc3Cc3ccccc3C2C1 (stereo not drawn)
## Result 48 AU (inactive)

## Task Return luciferase signal (reported value) for this compound: CCN(CC)C(C)CN1c2ccccc2Sc2ccccc21 (stereo not drawn)
## Result 36 AU (inactive)

## Task Return luciferase signal (reported value) for this compound: C[C@]12CCC(=O)C=C1C=C[C@@H]1[C@@H]2CC[C@@]2(C)[C@H]1CC[C@@]21CCC(=O)O1
## Result 40 AU (inactive)

## Task Return luciferase signal (reported value) for this compound: COC(=O)[C@@H]1[C@H]2C[C@H]3c4[nH]c5ccccc5c4CCN3C[C@@H]2CC[C@@H]1O
## Result 44 AU (inactive)

## Task Return luciferase signal (reported value) for this compound: COc1ccc(CN(CCN(C)C)c2ccccn2)cc1
## Result 88 AU (inactive)

## Task Return luciferase signal (reported value) for this compound: C=CCc1ccccc1OCC(O)CNC(C)C (stereo not drawn)
## Result 60 AU (inactive)

## Task Return luciferase signal (reported value) for this compound: Cc1ccc(C(=O)c2ccc(CC(=O)O)n2C)cc1
## Result 84 AU (inactive)

## Task Return luciferase signal (reported value) for this compound: Oc1ccc(OCc2ccccc2)cc1
## Result 64 AU (inactive)

## Task Return luciferase signal (reported value) for this compound: COc1ccc2nc(S(=O)Cc3ncc(C)c(OC)c3C)[nH]c2c1 (stereo not drawn)
## Result 68 AU (inactive)

## Task Return luciferase signal (reported value) for this compound: C=C1c2cccc(O)c2C(O)=C2C(=O)[C@]3(O)C(O)=C(C(N)=O)C(=O)[C@@H](N(C)C)[C@@H]3[C@@H](O)[C@H]12
## Result 40 AU (inactive)

## Task Return luciferase signal (reported value) for this compound: Cc1nnc(NS(=O)(=O)c2ccc(N)cc2)s1
## Result 184 AU (inactive)

## Task Return luciferase signal (reported value) for this compound: CCN(CC)CCNC(=O)c1cc(Br)c(N)cc1OC
## Result 60 AU (inactive)

## Task Return luciferase signal (reported value) for this compound: Cc1c(NC(C)C)c(=O)n(-c2ccccc2)n1C
## Result 56 AU (inactive)

## Task Return luciferase signal (reported value) for this compound: CCn1cc(C(=O)O)c(=O)c2cnc(N3CCNCC3)nc21
## Result 56 AU (inactive)

---

Provide the reported mean signal of each item.
assay: modulation of C. elegans fzo-1 (AID 1259413);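 note: fzo-1 mutant C. elegans worms in liquid wells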; conditions: C. elegans fzo-1 modulator screen, mean read-out; stronger effect = higher value
Lab note: jot the number down without any unit.

## Task Return mean signal (reported value) for this compound: CCOC(=O)OC(C)OC1=C(C(=O)Nc2ccccn2)N(C)S(=O)(=O)c2ccccc21 (configuration not stated)
## Result 259

## Task Return mean signal (reported value) for this compound: O=C(O)CCNC(=O)c1ccc(N=Nc2ccc(O)c(C(=O)O)c2)cc1
## Result 240

## Task Return mean signal (reported value) for this compound: Brc1c(NC2=NCCN2)ccc2nccnc12
## Result 249

## Task Return mean signal (reported value) for this compound: CN1CCC(=C2c3ccccc3CCc3sccc32)CC1
## Result 277

## Task Return mean signal (reported value) for this compound: CC(C)[C@H](N)C(=O)OCCOCn1cnc2c(=O)[nH]c(N)nc21
## Result 266

## Task Return mean signal (reported value) for this compound: CCN(CC)CC1CCCCN1CC(=O)N1c2ccccc2C(=O)Nc2cccnc21 (configuration not stated)
## Result 227

## Task Return mean signal (reported value) for this compound: N#Cc1ccc(C(c2ccc(C#N)cc2)n2cncn2)cc1
## Result 236

## Task Return mean signal (reported value) for this compound: CCN1CCCC1CNC(=O)c1cc(S(=O)(=O)CC)c(N)cc1OC (configuration not stated)
## Result 235

## Task Return mean signal (reported value) for this compound: COc1ccc(CC2c3cc(OC)c(OC)cc3CC[N+]2(C)CCC(=O)OCCCCCOC(=O)CC[N+]2(C)CCc3cc(OC)c(OC)cc3C2Cc2ccc(OC)c(OC)c2)cc1OC (configuration not stated)
## Result 250

## Task Return mean signal (reported value) for this compound: CC(C)c1nc(CN(C)C(=O)N[C@H](C(=O)N[C@@H](Cc2ccccc2)C[C@H](O)[C@H](Cc2ccccc2)NC(=O)OCc2cncs2)C(C)C)cs1
## Result 246

## Task Return mean signal (reported value) for this compound: COc1cc2nc(N3CCN(C(=O)C4COc5ccccc5O4)CC3)nc(N)c2cc1OC (configuration not stated)
## Result 219

## Task Return mean signal (reported value) for this compound: Nc1c2c(nc3c1CCC3)CCCC2
## Result 275

---

Provide the reported period change of each item.
assay: compounds altering circadian rhythm period length – cell-based, LOPAC library, luminescence reporter (AID 2774); details: circadian reporter cells, at 7 µM, actives lie on both sides;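 note: values are relative to mean of DMSO wells on each plate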
Active and inactive are the calls of the source. The rule behind the calls is not given here.

## Task Return period change (reported value) for this molecule: CC(=O)OC(C)C[N+](C)(C)C (stereo not drawn)
## Result -0.04 h (inactive)

## Task Return period change (reported value) for this molecule: CNCC(O)c1ccc(O)c(O)c1 (stereo not drawn)
## Result -0.055 h (inactive)

## Task Return period change (reported value) for this molecule: O=C1CC2(CCCC2)CC(=O)N1CCCCN1CCN(c2ncccn2)CC1
## Result -0.08 h (inactive)

---

Provide the reported insulin secretion stimulation of each item.
assay: stimulators of insulin release from INS-1E, primary screen, cell-based, 5 mM glucose, NPC library (AID 1117329); conditions: rat INS-1E insulin secretion, at 10 µM, stronger effect = higher value
Respond with the bare value in %.

## Task Return insulin secretion stimulation (reported value) for this compound: O=C1c2cccc(O)c2C(=O)c2c(O)cccc21
## Result -2.2

## Task Return insulin secretion stimulation (reported value) for this compound: Cc1cccc(C)c1NC(=O)C(C)N (stereo not drawn)
## Result 0.2

## Task Return insulin secretion stimulation (reported value) for this compound: O=NN(CCCl)C(=O)NC1CCCCC1
## Result -0.3
